Test system: Zea mays (ZEAMX)
experimental.details: Post-emergence crop plant compatibility, greenhouse pot test
Format: in vivo
conditions.used: 1.25 g/ha, vs untreated controls
Description: Seeds of monocotyledonous and dicotyledonous weeds and crop plants were placed in sandy loam in plastic or wood-fiber pots, covered with soil and cultivated in a greenhouse under controlled growth conditions. 2 to 3 weeks after sowing, the test plants were treated at the one-leaf stage. […]
molecules and their reported Post-emergence action against ZEAMX (crop plant compatibility)
Unit % implied. Number only.

Cn1c(C(F)(F)F)cc(=O)n(-c2cc(Oc3ccccc3OCC(=O)OCc3ccncc3)c(Cl)cc2F)c1=O :: 0

Request: Which Post-emergence action against ZEAMX (crop plant compatibility) value is on record for Cn1c(C(F)(F)F)cc(=O)n(-c2cc(Oc3ccccc3OCC(=O)OCC#N)c(C#N)cc2F)c1=O ?
Result: 0

Request: Which Post-emergence action against ZEAMX (crop plant compatibility) value is on record for COCCOCCOC(=O)COc1ccccc1Sc1cc(-n2c(=O)cc(C(F)(F)F)n(C)c2=O)c(F)cc1Cl ?
Result: 10

Request: Which Post-emergence action against ZEAMX (crop plant compatibility) value is on record for Cn1c(C(F)(F)F)cc(=O)n(-c2cc(Oc3ccccc3OCC(=O)OCCOC(F)(F)F)c([N+](=O)[O-])cc2F)c1=O ?
Result: 20

Request: Which Post-emergence action against ZEAMX (crop plant compatibility) value is on record for Cn1c(C(F)(F)F)cc(=O)n(-c2cc(Oc3ccccc3OCC(=O)OCC#N)c([N+](=O)[O-])cc2F)c1=O ?
Result: 10

Request: Which Post-emergence action against ZEAMX (crop plant compatibility) value is on record for COCC(C)OC(=O)COc1ccccc1Oc1cc(-n2c(=O)cc(C(F)(F)F)n(C)c2=O)c(F)cc1Cl (centres unmarked) ?
Result: 10

Request: Which Post-emergence action against ZEAMX (crop plant compatibility) value is on record for Cn1c(C(F)(F)F)cc(=O)n(-c2cc(Oc3ccccc3OCC(=O)OCC3CCOC3)c(Cl)cc2F)c1=O (centres unmarked) ?
Result: 20

Request: Which Post-emergence action against ZEAMX (crop plant compatibility) value is on record for Cn1c(C(F)(F)F)cc(=O)n(-c2cc(Oc3ccccc3OCC(=O)OCCC[N+](=O)[O-])c(Cl)cc2F)c1=O ?
Result: 20

Request: Which Post-emergence action against ZEAMX (crop plant compatibility) value is on record for Cn1c(C(F)(F)F)cc(=O)n(-c2cc(Sc3ccccc3OCC(=O)OCC3CCOC3)c(Cl)cc2F)c1=O (racemic) ?
Result: 10

Request: Which Post-emergence action against ZEAMX (crop plant compatibility) value is on record for Cn1c(C(F)(F)F)cc(=O)n(-c2cc(Oc3ccccc3OCC(=O)OCc3ccccn3)c([N+](=O)[O-])cc2F)c1=O ?
Result: 10

Request: Which Post-emergence action against ZEAMX (crop plant compatibility) value is on record for CCOCCOC(=O)COc1ccccc1Oc1cc(-n2c(=O)cc(C(F)(F)F)n(C)c2=O)c(F)cc1Cl ?
Result: 0

Request: Which Post-emergence action against ZEAMX (crop plant compatibility) value is on record for Cn1c(C(F)(F)F)cc(=O)n(-c2cc(Oc3ccccc3OCC(=O)OCCOC(F)(F)F)c(C#N)cc2F)c1=O ?
Result: 10

Request: Which Post-emergence action against ZEAMX (crop plant compatibility) value is on record for Cn1c(C(F)(F)F)cc(=O)n(-c2cc(Oc3cc(F)ccc3OCC(=O)OCC#N)c(Cl)cc2F)c1=O ?
Result: 20

Request: Which Post-emergence action against ZEAMX (crop plant compatibility) value is on record for COCCOC(=O)COc1ccccc1Oc1cc(-n2c(=O)cc(C(F)(F)F)n(C)c2=O)c(F)cc1[N+](=O)[O-] ?
Result: 20

Request: Which Post-emergence action against ZEAMX (crop plant compatibility) value is on record for Cn1c(C(F)(F)F)cc(=O)n(-c2cc(Sc3ccccc3OCC(=O)OCC3CCCO3)c(Cl)cc2F)c1=O (racemic) ?
Result: 20

Request: Which Post-emergence action against ZEAMX (crop plant compatibility) value is on record for CCOCCOC(=O)COc1ccccc1Oc1cc(-n2c(=O)cc(C(F)(F)F)n(C)c2=O)c(F)cc1Br ?
Result: 20

Request: Which Post-emergence action against ZEAMX (crop plant compatibility) value is on record for Cn1c(C(F)(F)F)cc(=O)n(-c2cc(Oc3ccccc3OCC(=O)OCc3cccnc3)c(Cl)cc2F)c1=O ?
Result: 0

----------
Tested on: Oryza sativa (ORYSA)
experimental.details: Post-emergence crop plant compatibility, greenhouse pot test (also comparative test C)
Assay type: in vivo
conditions.used: 5 g/ha, vs untreated controls
measure.name: Post-emergence action against ORYSA (crop plant compatibility) (%)
Unit % implied. Number only.

Cn1c(C(F)(F)F)cc(=O)n(-c2cc(Oc3ccccc3OCC(=O)OCc3cccnn3)c(C#N)cc2F)c1=O :: 0
Cn1c(C(F)(F)F)cc(=O)n(-c2cc(Oc3ccccc3OCC(=O)OCc3ccccn3)c([N+](=O)[O-])cc2F)c1=O :: 10

Request: Which Post-emergence action against ORYSA (crop plant compatibility) value is on record for Cn1c(C(F)(F)F)cc(=O)n(-c2cc(Oc3ccccc3OCC(=O)OCCOC(F)(F)F)c(Cl)cc2F)c1=O ?
Result: 20

Request: Which Post-emergence action against ORYSA (crop plant compatibility) value is on record for Cn1c(C(F)(F)F)cc(=O)n(-c2cc(Oc3ccccc3OCC(=O)OCC#N)c(Br)cc2F)c1=O ?
Result: 20

Request: Which Post-emergence action against ORYSA (crop plant compatibility) value is on record for Cn1c(C(F)(F)F)cc(=O)n(-c2cc(Oc3ccccc3OCC(=O)OCC[N+](=O)[O-])c(Br)cc2F)c1=O ?
Result: 0

----------
System: Alopecurus myosuroides (ALOMY)
experimental.details: Post-emergence herbicidal action, greenhouse pot test (also comparative test C)
Type: in vivo
conditions.used: 5 g/ha, rated visually after about 3 weeks vs untreated controls, 100% = plants have died
measure.name: Post-emergence action at 5 g/ha against ALOMY in % (%)
Unit % implied. Number only.

Cn1c(C(F)(F)F)cc(=O)n(-c2cc(Oc3ccccc3OCC(=O)OCCOC(F)(F)F)c(Br)cc2F)c1=O [I.8-41] :: 80
COCCOCCOC(=O)COc1ccccc1Oc1cc(-n2c(=O)cc(C(F)(F)F)n(C)c2=O)c(F)cc1[N+](=O)[O-] [I.6-23] :: 80
CCOCCOC(=O)COc1ccccc1Oc1cc(-n2c(=O)cc(C(F)(F)F)n(C)c2=O)c(F)cc1C#N [I.9-2] :: 80

Request: Which Post-emergence action at 5 g/ha against ALOMY in % value is on record for Cn1c(C(F)(F)F)cc(=O)n(-c2cc(Oc3ccccc3OCC(=O)OCc3ccccn3)c([N+](=O)[O-])cc2F)c1=O [I.6-276] ?
Result: 80

Request: Which Post-emergence action at 5 g/ha against ALOMY in % value is on record for Cn1c(C(F)(F)F)cc(=O)n(-c2cc(Oc3ccccc3OCC(=O)OCCC[N+](=O)[O-])c(Cl)cc2F)c1=O [I.7-339] ?
Result: 100

Request: Which Post-emergence action at 5 g/ha against ALOMY in % value is on record for COCCOCCOC(=O)COc1ccccc1Oc1cc(-n2c(=O)cc(C(F)(F)F)n(C)c2=O)c(F)cc1Br [I.8-23] ?
Result: 80

Request: Which Post-emergence action at 5 g/ha against ALOMY in % value is on record for COCCOCCOC(=O)COc1ccccc1Oc1cc(-n2c(=O)cc(C(F)(F)F)n(C)c2=O)c(F)cc1Cl [I.7-23] ?
Result: 100

Request: Which Post-emergence action at 5 g/ha against ALOMY in % value is on record for COCCCOC(=O)COc1ccccc1Sc1cc(-n2c(=O)cc(C(F)(F)F)n(C)c2=O)c(F)cc1Cl [I.1-26] ?
Result: 80

Request: Which Post-emergence action at 5 g/ha against ALOMY in % value is on record for Cn1c(C(F)(F)F)cc(=O)n(-c2cc(Oc3ccccc3OCC(=O)OC3COC3)c(Cl)cc2F)c1=O [I.7-115] ?
Result: 100

----------
Test system: Alopecurus myosuroides (ALOMY)
experimental.details: Post-emergence herbicidal action, greenhouse pot test (also comparative test C)
Format: in vivo
conditions.used: 5 g/ha, rated visually after about 3 weeks vs untreated controls, 100% = plants have died
measure.name: Post-emergence action at 5 g/ha against ALOMY in %
Please give the number followed by its unit.

CCOCCOC(=O)COc1ccccc1Oc1cc(-n2c(=O)cc(C(F)(F)F)n(C)c2=O)c(F)cc1Cl [I.7-2] :: 80%
CCOCCOC(=O)COc1ccccc1Oc1cc(-n2c(=O)cc(C(F)(F)F)n(C)c2=O)c(F)cc1Br [I.8-2] :: 100%
Cn1c(C(F)(F)F)cc(=O)n(-c2cc(Oc3ccccc3OCC(=O)OCc3cccnn3)c(C#N)cc2F)c1=O [I.9-291] :: 90%

Next:
Request: Which Post-emergence action at 5 g/ha against ALOMY in % value is on record for Cn1c(C(F)(F)F)cc(=O)n(-c2cc(Sc3ccccc3OCC(=O)OCC3CCCO3)c(Cl)cc2F)c1=O (racemic) [I.1-71] ?
Result: 80%
